I'd be grateful if you could share measured % 25 nM CA200645 binding for these entries.
# system: human A3AR (Homo sapiens)
# Construct: expressed in transfected cells
# Sequence (P0DMS8 1-318): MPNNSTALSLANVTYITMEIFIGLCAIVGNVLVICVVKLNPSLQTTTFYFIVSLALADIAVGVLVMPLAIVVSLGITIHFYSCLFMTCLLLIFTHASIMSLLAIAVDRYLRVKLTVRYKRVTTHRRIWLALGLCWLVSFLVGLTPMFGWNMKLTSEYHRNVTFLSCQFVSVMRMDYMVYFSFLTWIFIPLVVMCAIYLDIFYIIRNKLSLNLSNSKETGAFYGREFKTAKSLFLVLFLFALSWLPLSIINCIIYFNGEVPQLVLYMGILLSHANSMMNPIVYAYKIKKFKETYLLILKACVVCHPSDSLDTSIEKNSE
# protocol-text: LOPAC library primary screen: single concentration (10 μM) inhibition of 25 nM CA200645 binding, PHERAstar FS
Counter-ions that a name gives are not always drawn.
One number for each entry, in %.

Reference set, count: 5
>  <molecule>
N[C@@H](Cc1ccc(F)cc1)C(=O)O [p-Fluoro-L-phenylalanine]

>  <% 25 nM CA200645 binding [%]>
98.5

$$$$
>  <molecule>
NS(=O)(=O)c1cc2c(cc1Cl)NC(C1CC3C=CC1C3)NS2(=O)=O (stereo not drawn) [Cyclothiazide]

>  <% 25 nM CA200645 binding [%]>
93.2

$$$$
>  <molecule>
N=c1ccn2c(n1)O[C@H]1[C@H](O)[C@@H](CO)O[C@H]12 [Ancitabine hydrochloride]

>  <% 25 nM CA200645 binding [%]>
106.9

$$$$
>  <molecule>
COc1ccc2[nH]cc(CCNC(C)=O)c2c1 [Melatonin]

>  <% 25 nM CA200645 binding [%]>
106.6

$$$$
>  <molecule>
NCCc1ccc(O)c(O)c1 [Dopamine hydrochloride]

>  <% 25 nM CA200645 binding [%]>
93.0

$$$$

Give % 25 nM CA200645 binding for all molecules that follow.
1. C[N+](C)(C)CCO.[Br-] [Choline bromide]
2. N[C@H](C(=O)O)c1cc(O)no1 (racemic) [(±)-Ibotenic acid]
3. O=C(CCSCc1ccco1)NNC(=O)N1Cc2ccccc2Oc2ccc(Cl)cc21 [SC-51322]
4. O=C(O)Cc1c[nH]c2ccc(O)cc12 [5-Hydroxyindolacetic acid]
5. CCOC(=O)C1=C(C)NC(C)=C(C(=O)OC)C1c1cccc([N+](=O)[O-])c1 (stereo not drawn) [Nitrendipine]
6. C[C@@H]1O[C@@H](O[C@H]2C[C@@H](O)[C@]3(CO)[C@H]4[C@H](O)C[C@]5(C)[C@@H](C6=CC(=O)OC6)CC[C@]5(O)[C@@H]4CC[C@]3(O)C2)[C@H](O)[C@H](O)[C@H]1O [Ouabain]

1: 100.0; 2: 93.1; 3: 86.9; 4: 102.3; 5: 96.1; 6: 102.0

Give % 25 nM CA200645 binding for all molecules that follow.
1. CNCC(O)c1ccc(O)cc1 (racemic) [(±)-Synephrine]
2. N#C/C(=C\c1ccc(-c2cc(Cl)ccc2Cl)o1)C(=O)Nc1cccc2ncccc12 [AGK2]

1. 90.7
2. 35.8

* * *

I'd be grateful if you could share measured % 25 nM CA200645 binding for these entries.
# system: human A3AR (Homo sapiens)
# Construct: expressed in transfected cells
# protocol-text: LOPAC library primary screen: single concentration (10 μM) inhibition of 25 nM CA200645 binding, PHERAstar FS
Where a name gives a salt, the structure may show the parent alone.
Answers are plain numbers, in %.

Give % 25 nM CA200645 binding for all molecules that follow.
1. O=c1onc2cnc3ccccc3n12
2. Nc1ncnc2c1ncn2C1CCCC1
3. COCc1nc2c([nH]1)c(=O)n(C)c(=O)n2CC(C)C
4. Cc1ccc(C(=O)Nc2ccc(S(=O)(=O)[O-])c3cc(S(=O)(=O)[O-])cc(S(=O)(=O)[O-])c23)cc1NC(=O)c1cccc(NC(=O)Nc2cccc(C(=O)Nc3cc(C(=O)Nc4ccc(S(=O)(=O)[O-])c5cc(S(=O)(=O)[O-])cc(S(=O)(=O)[O-])c45)ccc3C)c2)c1.[Na+].[Na+].[Na+].[Na+].[Na+].[Na+] [Suramin sodium salt]
5. Cl.Cl.Fc1ccc(C(OCCN2CCN(CCCc3ccccc3)CC2)c2ccc(F)cc2)cc1 [GBR-12909 dihydrochloride]

1: 93.0; 2: 102.2; 3: 99.2; 4: 93.4; 5: 95.7

Give % 25 nM CA200645 binding for all molecules that follow.
1. CC[C@@H](CO)NC(=O)[C@@H]1C=C2c3cccc4c3c(cn4C)C[C@H]2N(C)C1 [Methysergide maleate]
2. Cc1ccc(S(=O)(=O)NC(=O)NN2CCCCCC2)cc1 [Tolazamide]

92.3
109.2
